- test-method-notes: NCI Yeast Anticancer Drug Screen. Data for the sgs1 mgt1 strain (AID 161);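 further: 0% = growth of cultures given vehicle only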
- condition-parameters: S. cerevisiae sgs1 mgt1 strain, at 50.0 µM
The panel holds about 79,000 compounds, 15% with a hit somewhere; the sample as a whole holds those more often. The source made the active and inactive calls. No stated cut-off is given here; in the data, active means growth inhibition above about 70%; inactive means the rest.
Select the matching outcome among true (1) for active, false (0) for inactive

Tell me the assay call for CCCCCCCCCCCC(=O)OCC1OC(n2cc(F)c(=O)[nH]c2=O)C(N)C(O)C1O (stereo not drawn) please.
true (1)

Call for entry COC(=O)c1[nH]cnc1/N=N/N(C)C :
true (1)

Test call, this molecule: CNC(=O)c1ccc(OC)cc1C1(O)c2ccccc2CCc2ccccc21
true (1)

Any idea what this test logged for CC(=O)c1ccc(OCc2ccccc2)cc1 ?
false (0)

Please share the test call associated with O=C1c2ccccc2C(=O)c2sc(Nc3cccc(Cl)c3)nc21 .
true (1)

What did the test return for Cc1c(N)cccc1[N+](=O)[O-] ?
true (1)

What did this assay record as the result for Brc1cc2ccccc2c2ccccc12 ?
false (0)

Hello, I am checking results. What call was entered for O=[N+]([O-])c1ccc(NCc2ccccc2)c([N+](=O)[O-])c1 ?
false (0)

Answer briefly: the call reported for c1cc(C2=NCCN2)ccc1Nc1ccc(-c2cc3ccc(C4=NCCN4)cc3[nH]2)cc1 in this assay.
false (0)

Please let me know the test result on file for CC#Cc1cc2c(cc1O)CC[C@@H]1[C@@H]2CC[C@]2(C)[C@@H](O)CC[C@@H]12 .
true (1)

I would be grateful if you could indicate the recorded call for O=S(=O)(Nc1ccnn1-c1ccccc1)c1ccc(N=Cc2c3ccccc3nc3cc(Cl)ccc23)cc1 .
true (1)

For this molecule, state the assay outcome: CCC(CC)(C(=O)Nc1ccc2c(c1)c(=O)c1ccccc1n2C)C(=O)Nc1ccc2c(c1)c(=O)c1ccccc1n2C
true (1)

Hey, what did the test say about CC1CCN(CCC(=O)c2cccc(O)c2)CC1 ?
false (0)

How did this test come out for CCCCCC(=O)/C=C/c1ccc(C)cc1 ?
true (1)

Hi team, can someone confirm the assay call for CC(C)(C)C(=O)/C=C/c1ccc2ccccc2n1 ?
false (0)

What did the test return for Cc1ccc(N=NC(C(=O)c2ccccc2)C(=O)c2ccccc2)cc1 ?
true (1)

Hi, do you know how O=C(Nc1cccc(Br)c1)Oc1ccc(Cl)c2cccnc12 came out in this test?
true (1)

Hey, what did the test say about O=C(/C=C/C(=O)c1ccc(O)cc1)c1ccccc1 ?
false (0)

Could you kindly confirm the outcome this assay logged for O=C(NCCCNCCNC(=O)c1cc(-c2ccccc2)nc2ccccc12)c1cc(-c2ccccc2)nc2ccccc12 ?
true (1)

Given N#CSCCSC#N , state the outcome it received in this test.
true (1)

Just curious, what result did O=CNc1ccc2c(c1)Cc1cc(NC=O)ccc1-2 get here?
true (1)

What did this assay record as the result for CCC[CH2][Sn]([CH2]CCC)([O]C(=O)C(OC(C)=O)c1ccccc1)[O]C(=O)C(OC(C)=O)c1ccccc1 (stereo not drawn) ?
true (1)

What did the test return for CN(C=O)c1ccc2c(c1)Cc1ccccc1-2 ?
false (0)
